- ASSAY_TARGET: BRD4 (BD1+BD2) bromodomain protein (Homo sapiens)
- Construct: BRD4 (BD1+BD2) bromodomain protein
- PROCEDURE_TEXT: TR-FRET BRD4 activity assay (Cayman kit)
- CONDITION_DESCRIPTION: room temperature 2 hours
# IC50 per record follows

COMPOUND: Cc1nnn(C)c1-c1cnc2c3c4cnn(C)c4c(F)cc3n([C@H](c3ccccc3)C3CCOCC3)c2c1 [Compound 8]
UNIT_DESCRIPTOR: nM
IC50: 2.6
//
COMPOUND: Cc1nnn(C)c1-c1cnc2c3c4c(ccc3n([C@H](c3ccccc3)C3CCOCC3)c2c1)cnn4C [Compound 7]
UNIT_DESCRIPTOR: nM
IC50: 5.2
//
COMPOUND: Cc1nnn(C)c1-c1cnc2c3c4c(ccc3n([C@H](c3ccccc3)C3CCOCC3)c2c1)C(=O)N(C)C4 [Compound 3]
UNIT_DESCRIPTOR: nM
IC50: 1.9
//
COMPOUND: Cc1nnn(C)c1-c1cnc2c3cc4c(cc3n([C@H](c3ccccc3)C3CCOCC3)c2c1)CN(C)C4=O [Compound 2]
UNIT_DESCRIPTOR: nM
IC50: 2.2
